B1: library; numbered along this chain (parent)
chain: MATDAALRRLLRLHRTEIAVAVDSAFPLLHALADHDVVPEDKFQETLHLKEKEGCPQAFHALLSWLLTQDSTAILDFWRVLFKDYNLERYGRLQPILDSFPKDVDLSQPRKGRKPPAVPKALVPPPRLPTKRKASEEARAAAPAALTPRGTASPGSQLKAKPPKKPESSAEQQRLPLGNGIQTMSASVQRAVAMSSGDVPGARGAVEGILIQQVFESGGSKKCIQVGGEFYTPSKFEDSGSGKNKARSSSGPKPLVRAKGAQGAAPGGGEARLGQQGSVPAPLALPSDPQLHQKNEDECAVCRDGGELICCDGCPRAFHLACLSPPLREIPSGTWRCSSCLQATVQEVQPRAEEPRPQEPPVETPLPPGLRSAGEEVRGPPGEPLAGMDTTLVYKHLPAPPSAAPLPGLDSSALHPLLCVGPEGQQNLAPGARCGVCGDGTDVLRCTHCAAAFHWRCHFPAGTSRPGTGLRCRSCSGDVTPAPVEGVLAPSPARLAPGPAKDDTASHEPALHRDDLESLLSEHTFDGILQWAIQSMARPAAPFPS

- Variants of: B1
- procedure.summary: AIRE transcriptional activation functional score (insulin promoter-GFP; nonsense median 0, synonymous median 1) (normalised score); higher = higher AIRE activity (more reporter activation)
- settings: with insulin promoter-GFP reporter in HEK293
# AIRE transcriptional activation functional score values compiled below
Give your answer as a number; write no unit.

Reported AIRE transcriptional activation functional score for `P460N` : what is it?
1.07

// returns reported AIRE transcriptional activation functional score for input `E53G`
-0.0905

Entry `P355K` has what AIRE transcriptional activation functional score?
1.2

Any idea what AIRE transcriptional activation functional score was measured for `Y231V` ?
0.771

I have this variant here, `S195Q` , and I need its recorded AIRE transcriptional activation functional score.
0.659

AIRE transcriptional activation functional score for `E167Y` ?
2.17
